compound: O=C(Nc1ccc(Nc2c3ccccc3nc3ccccc23)cc1)c1ccccc1
pKa: 7.39
--
compound: CS(=O)(=O)Nc1ccc(Nc2c3ccccc3nc3c(Cl)cccc23)cc1
pKa: 5.92
--
compound: CS(=O)(=O)Nc1ccc(Nc2c3ccccc3nc3cc(Cl)ccc23)cc1
pKa: 6.57
--
compound: CN(C)CCC1(Cc2ccc(C(C)(C)C)cc2)COC1
pKa: 9.2
--
compound: Cc1ccc(NS(=O)(=O)Cc2ccccc2)c(=O)n1CC(=O)NCc1ccc(C(=N)N)cc1
pKa: 10.2
--
compound: Clc1ccccc1N=C1NCCN1
pKa: 9.15
--
compound: NCCC(F)(F)F
pKa: 8.7
--
compound: c1ccc(NC2=NCCN2)cc1
pKa: 10.1
--
compound: c1c[nH]nn1
pKa: 1.17
--
compound: CN(C)CCCCc1ccc(C(C)(C)C)cc1
pKa: 9.9
--
compound: COc1cc(NS(C)(=O)=O)ccc1Nc1c2ccccc2nc2c(C(=O)NCC(O)CO)cccc12 (configuration not stated)
pKa: 6.34
--
compound: COc1cc(NS(C)(=O)=O)ccc1Nc1c2ccccc2nc2c(C(=O)NCC(N)=O)cccc12
pKa: 6.18
